// provenance: patent US11795460B2

Provide the reported # Sites (off-target integration sites detected) of each item.
# System: off-target genomic sites
# assay.name: Off-target oligo insertion based assay in HEK293_Cas9 cells, dgRNAs and sgRNAs (Tables 23, 24)
# Type: cell-based, human
# conditions: Table 24; TTR sgRNAs in HekCas9 cells, insertion detection method
Strand notation (5' to 3'): a small letter for the sugar, then the base; units joined by * are phosphorothioate-linked, units joined directly phosphodiester-linked; [ ] holds rarer units or linkages, { } end groups; capitals alone tell only the bases. m = 2'-O-methyl; r = 2'-OH (RNA)
Answers are plain numbers.

G000496: TTR sgRNA modified sequence, Human, SEQ ID No. 103; guide sequence of CR005304 (nucleic acid) guide: mG*mG*mC*rCrGrUrGrCrArUrGrUrGrUrUrCrArGrArArGrUrUrUrUrArGrAmGmCmUmAmGmAmAmAmUmAmGmCrArArGrUrUrArArArArUrArArGrGrCrUrArGrUrCrCrGrUrUrArUrCrAmAmCmUmUmGmAmAmAmAmAmGmUmGmGmCmAmCmCmGmAmGmUmCmGmGmUmGmCmU*mU*mU*mU; 1

Attention now turns to another entry.
Fill in: # Sites (off-target integration sites detected) of G000485: TTR sgRNA modified sequence, Human, SEQ ID No. 92; guide sequence of CR003336 (nucleic acid) guide: mC*mC*mU*rCrCrUrCrUrGrCrCrUrUrGrCrUrGrGrArCrGrUrUrUrUrArGrAmGmCmUmAmGmAmAmAmUmAmGmCrArArGrUrUrArArArArUrArArGrGrCrUrArGrUrCrCrGrUrUrArUrCrAmAmCmUmUmGmAmAmAmAmAmGmUmGmGmCmAmCmCmGmAmGmUmCmGmGmUmGmCmU*mU*mU*mU is ___ 22
